# procedure.summary: Pharmacokinetic study in vivo
# condition.details: both, Sprague-Dawley, rat, in vivo, iv, 10 mg/kg
metric.name: clearance (mL/min/kg)
Give bare numbers, in mL/min/kg.

Task item: What does the data say about its clearance? Entry: CCC(=O)N1CCCN(C(=O)C2CCCN(Cc3ccc(NC(=O)N[C@@]45C[C@@H]6C[C@@](C)(C[C@@](C)(C6)C4)C5)c(F)c3)C2)CC1 (stereo partly shown)
Reply: 4.83

====

# procedure.summary: Pharmacokinetic study in vivo
# condition.details: both, Sprague-Dawley, rat, in vivo, iv, 10 mg/kg
metric.name: AUC(0-inf) (nM·h)
Answers are plain numbers, in nM·h.

Task item: What does the data say about its AUC(0-inf)? Entry: CCC(=O)N1CCCN(C(=O)C2CCCN(Cc3ccc(NC(=O)N[C@@]45C[C@@H]6C[C@@](C)(C[C@@](C)(C6)C4)C5)c(F)c3)C2)CC1 (stereo partly shown)
Reply: 11.5
